pIC50: −log10 of the molar value.
Listing of pIC50 toward Potassium voltage-gated channel subfamily A member 5 (Homo sapiens), each taken from a published source.
ASSAY METRIC: pIC50

CC1=Nc2ccnn2C(c2ccc(Cl)c(Cl)c2)C1c1nc2c(C)cccc2[nH]1 (stereo unspecified) ... 6.82
CCN(CC)C(=O)C1C(C)=Nc2ccnn2C1c1ccc(Cl)c(Cl)c1 (stereo unspecified) ... 6.36
CC1=Nc2ccnn2C(c2ccc(Cl)c(Cl)c2)C1C(=O)NCc1ccccc1 (stereo unspecified) ... 6.80

[I] CCCCNC(=O)C1C(C)=Nc2ccnn2C1c1ccc(Cl)c(Cl)c1 (stereo unspecified)
[II] CC1=Nc2ccnn2C(c2cccc(Cl)c2)C1C(=O)N1CCN(c2ccc(F)cc2)CC1 (stereo unspecified)
[III] CC1=Nc2ccnn2C(c2ccc(Cl)c(Cl)c2)C1C(=O)N1CCCC1c1ccc(F)cc1 (stereo unspecified)
[Q] List the 3 entries from lowest pIC50 to highest pIC50 value. I'd appreciate it if you listed the labels in the requested order.
[A] I, II, III
(I: 6.36, II: 6.72, III: 7.15)
